Tested on: OVISE (Ovarian Carcinoma);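 also: after 72 h of two-drug dosing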
Test: Bliss excess, mean over the matrix (fraction); higher = more synergy
// values below are reported Bliss excess

Here are 2 compounds together with their reported answers.
compound	observedResult
Cc1c2c(nn1C)CSCc1cc(n(C)n1)CSc1cc(c3ccccc3c1)OCCCc1c(C(=O)O)n(C)c3c-2c(Cl)ccc13 [AZD5991] + CN(C)CCCOc1ccc(-c2ccc3ncc4c(c3c2)n(C2CCOCC2)c(=O)n4C)cn1 [AZD0156] (first compound max 1 µM, 7x7, partner max 1 µM)	-0.0007
Cn1cnc2c(F)c(Nc3ccc(Br)cc3Cl)c(C(=O)NOCCO)cc21 [Selumetinib] + CC(C)n1c(=O)n(C)c2cnc3cc(F)c(-c4ccc(OCCCN5CCCCC5)nc4)cc3c21 [AZD1390] (first compound max 10 µM, 7x7, partner max 0.3 µM)	-0.0339

Now take the following compound into account.
Challenge: Query (compound): C[C@@H](c1ccc2nccn2c1)n1nnc2ncc(-c3cnn(C)c3)nc21 [Savolitinib] + CN(CC[C@H](CSC1=CC=CC=C1)NC2=C(C=C(C=C2)S(=O)(=O)NC(=O)C3=CC=C(C=C3)N4CCC(CC4)[C@H](C5=CC=CC=C5C6=CC=C(C=C6)Cl)O)S(=O)(=O)C(F)(F)F)CCO [AZD4320] (first compound max 1 µM, 7x7, partner max 1 µM) ; field requested: Bliss excess
Response given: -0.0472
